Tested on: RPMI-8226 (Leukemia)
test: NCI-60 screen (SRB, 48 h)
conditions: Homo sapiens, RPMI-8226, read-out: LC50
experimental endpoint: CC50 (µM)

[
  {
    "compound": "C=C(C)[C@@H]1CC[C@]2(COS(=O)(=O)c3ccc(C)cc3)CC[C@]3(C)[C@@H](CC[C@@H]4[C@@]5(C)CCCNC(C)(C)[C@@H]5CC[C@]43C)[C@@H]12",
    "result unit": "µM",
    "reported relation": ">",
    "value": 100
  },
  {
    "compound": "CC1(C)CC[C@]2(CO)CC[C@]3(C)C(=CC[C@@H]4[C@@]5(C)CCCNC(C)(C)[C@@H]5CC[C@]43C)[C@@H]2C1",
    "result unit": "µM",
    "reported relation": ">",
    "value": 100
  },
  {
    "compound": "CC1(C)CC[C@]23CC[C@]4(C)[C@H](CC[C@@H]5[C@@]6(C)CCCNC(C)(C)[C@@H]6CC[C@]54C)[C@H]2[C@H]1OC3",
    "result unit": "µM",
    "reported relation": "=",
    "value": 96.8
  },
  {
    "compound": "C[C@H]1[C@H](C)CC[C@]2(CO)CC[C@]3(C)C(=CC[C@@H]4[C@@]5(C)CCCNC(C)(C)[C@@H]5CC[C@]43C)[C@H]12",
    "result unit": "µM",
    "reported relation": "=",
    "value": 9.27
  },
  {
    "compound": "CC1(C)NCCC[C@]2(C)[C@H]3C=CC4=C5C[C@@](C)(CO)CC[C@]5(C)CC[C@@]4(C)[C@]3(C)CC[C@@H]12",
    "result unit": "µM",
    "reported relation": "=",
    "value": 52.9
  },
  {
    "compound": "C=C(C)C1CCC2(CO)CCC3(C)C(CCC4C5(C)CCCNC(C)(C)C5CCC43C)C12 (stereo not shown)",
    "result unit": "µM",
    "reported relation": ">",
    "value": 100
  },
  {
    "compound": "Cc1ccc(S(=O)(=O)OC[C@@]2(C)CC[C@]3(C)CC[C@]4(C)C(=C3C2)C=C[C@@H]2[C@@]3(C)CCCNC(C)(C)[C@@H]3CC[C@]24C)cc1",
    "result unit": "µM",
    "reported relation": ">",
    "value": 100
  }
]

====

IC (TGI) values, listed per item
Tested on: TK-10 (Renal cancer)
test: NCI-60 screen (SRB, 48 h)
conditions: Homo sapiens, TK-10, 48 h, read-out: TGI

[
  {
    "smi": "C=C(C)[C@@H]1CCC=C2CC[C@]3(C)[C@H](CC[C@@H]4[C@@]5(C)CCCNC(C)(C)[C@@H]5CC[C@]43C)[C@H]21",
    "IC (TGI) [µM]": 3.45
  },
  {
    "smi": "C=C(C)[C@@H]1CC[C@]2(C(=O)N[C@H](CO)Cc3ccccc3)CC[C@]3(C)[C@H](CC[C@@H]4[C@@]5(C)CCCNC(C)(C)[C@@H]5CC[C@]43C)[C@@H]12",
    "IC (TGI) [µM]": 3.08
  },
  {
    "smi": "CC1(C)NCCC[C@]2(C)[C@H]3C=CC4=C5C[C@@](C)(CO)CC[C@]5(C)CC[C@@]4(C)[C@]3(C)CC[C@@H]12",
    "IC (TGI) [µM]": 7.15
  }
]

Measured values drawn from paper PMC7914897 for this set.
